System: HEK-293T
experiment: Multiplex assay against HEK293T
Type: toxicity, cell-based
testParameters: human, 48 h, 1 µM, compound concentration 1 uM, replicate 2
Population Normal (%) by entry:
Number first, unit second.

Please review the following examples before continuing.
[
  {
    "compound": "CN(C)c1ccnc2sc3c(=O)n(N4CCCCCC4)cnc3c12",
    "Population Normal (%)": "96%"
  },
  {
    "compound": "Cc1ccc(/C(=C\\CN2CCCC2)c2ccccn2)cc1 [TRIPROLIDINE]",
    "Population Normal (%)": "96%"
  },
  {
    "compound": "c1cc(OCCCN2CCCCC2)ccc1CN1CCCCC1 [JNJ-5207852]",
    "Population Normal (%)": "98%"
  },
  {
    "compound": "Cl.Clc1ccc2nsnc2c1NC1=NCCN1 [TIZANIDINE HYDROCHLORIDE]",
    "Population Normal (%)": "96%"
  },
  {
    "compound": "O=C(NCCO)c1cccc(-c2cc(Nc3ccc(OC(F)(F)F)cc3)ncn2)c1",
    "Population Normal (%)": "94%"
  }
]

## Task Look up Population Normal (%) for this compound: O=S(=O)(c1ccccc1)c1cnc2c(N3CCNCC3)cccc2c1 [INTEPIRDINE]
## Result 96%

## Task Same question, CC[C@H]1OC(=O)[C@H](C)[C@@H](O[C@H]2C[C@@](C)(OC)[C@@H](O)[C@H](C)O2)[C@H](C)[C@@H](O[C@@H]2O[C@H](C)C[C@H](N(C)C)[C@H]2O)[C@@]2(C)CC(C)=C(O2)[C@H](C)[C@@H](O)[C@]1(C)O this time
## Result 93%

## Task And the next one, COc1c(C)cc(NC(=O)c2nn(Cc3ccc(F)cc3)c3c2CN(C(=O)c2ccc[nH]2)C[C@]3(C)C(N)=O)cc1C ?
## Result 96%

## Task And for COc1cc(C(=O)N(CCCc2ccccc2)Cc2ccc(CC(=O)O)cc2)cc(OC)c1C ?
## Result 96%

## Task // query: CCCn1c(=O)c2[nH]c(C3CCCC3)nc2n(CCC)c1=O
## Result 96%

----------
Test system: HEK-293T
experiment: Multiplex assay against HEK293T
Type: toxicity, cell-based
testParameters: human, 48 h, 1 µM, compound concentration 1 uM, replicate 2
measuredEndpoint: Population Mitochondria Different-Phenotype (%)
The answer is to be given in %; state only the numeric part.

Some entries whose results are on file:
[
  {
    "smilesString": "Oc1c(CN2CCN(c3ccccn3)CC2)cc(Cl)c2cccnc12",
    "measurementTarget": "HEK-293T",
    "recordedNumber": 17
  },
  {
    "smilesString": "COc1cc(NC(=O)CCN2CCC(OC(=O)Nc3ccccc3-c3ccccc3)CC2)c(Cl)cc1CNC[C@H](O)c1ccc(O)c2[nH]c(=O)ccc12",
    "measurementTarget": "HEK-293T",
    "recordedNumber": 42
  },
  {
    "smilesString": "C[C@@H]1C[C@H]2[C@@H]3CCC4=CC(=O)C=C[C@]4(C)[C@@]3(F)[C@@H](O)C[C@]2(C)[C@@]1(O)C(=O)CO",
    "measurementTarget": "HEK-293T",
    "recordedNumber": 27
  },
  {
    "smilesString": "CN1CCN(c2nc3cc(C(F)(F)F)ccc3n3cccc23)CC1.O=C(O)/C=C\\C(=O)O.O=C(O)/C=C\\C(=O)O",
    "measurementTarget": "HEK-293T",
    "recordedNumber": 42
  }
]

Would you kindly look at the next entry?
## Task I would be grateful if you could share the reported Population Mitochondria Different-Phenotype (%) for O=C(O)c1cc2ccccc2c(Cc2c(O)c(C(=O)O)cc3ccccc23)c1O .
## Result 27

----------
Tested on: Fibroblast
experiment: Multiplex assay against human fibroblast
Assay type: toxicity, cell-based
testParameters: 12 h, 10 µM, compound concentration 10 uM, replicate 1
// classify: if (Population Mitotic Cells (%) < 60%) MET else NOT MET

[
  {
    "compound": "Cc1ccccc1C(=O)Nc1ccc(C(=O)N2CCCC(N(C)C)c3ccccc32)cc1.Cl (stereo unspecified)",
    "classification": "MET"
  },
  {
    "compound": "O=S(=O)(c1ccccc1)c1cnc2c(N3CCNCC3)cccc2c1 [INTEPIRDINE]",
    "classification": "MET"
  },
  {
    "compound": "CN(C)CCCc1cc(C(=O)Nc2ccc(-c3ccncc3)cc2)ccc1O.Cl.Cl",
    "classification": "MET"
  },
  {
    "compound": "CC[C@H]1OC(=O)[C@H](C)[C@@H](O[C@H]2C[C@@](C)(OC)[C@@H](O)[C@H](C)O2)[C@H](C)[C@@H](O[C@@H]2O[C@H](C)C[C@H](N(C)C)[C@H]2O)[C@@]2(C)CC(C)=C(O2)[C@H](C)[C@@H](O)[C@]1(C)O",
    "classification": "MET"
  },
  {
    "compound": "N[C@@]1(C(=O)O)CO[C@H]2[C@H](C(=O)O)[C@H]21 [LY-379268]",
    "classification": "NOT MET"
  }
]

## Task Is 60% strictly greater than the compound's reported Population Mitotic Cells (%)? compound: COc1c(C)cc(NC(=O)c2nn(Cc3ccc(F)cc3)c3c2CN(C(=O)c2ccc[nH]2)C[C@]3(C)C(N)=O)cc1C
## Result MET

## Task Next compound up: C[C@@H]1C[C@H]2[C@@H]3CCC4=CC(=O)C=C[C@]4(C)[C@@]3(F)[C@@H](O)C[C@]2(C)[C@@]1(O)C(=O)CO [DEXAMETHASONE]
## Result NOT MET

## Task Proceed to Cl.Clc1ccc2nsnc2c1NC1=NCCN1 [TIZANIDINE HYDROCHLORIDE]
## Result NOT MET

## Task Try the compound C[C@H]1[C@H]2CC[C@H]3[C@@H]4CC=C5C[C@@H](N(C)C)CC[C@]5(C)[C@H]4CC[C@]23CN1C [CONESSINE]
## Result NOT MET

## Task Check O=C(O)Cc1ccccc1Nc1c(Cl)cccc1Cl [DICLOFENAC] too.
## Result NOT MET

## Task One more compound: CC(C)(C)c1ccc(S(=O)(=O)Nc2ccc(Cl)cc2C(=O)c2cc[n+]([O-])cc2)cc1 [VERCIRNON]
## Result MET

## Task Try CCCn1c(=O)c2[nH]c(C3CCCC3)nc2n(CCC)c1=O next.
## Result MET

## Task // same read-out, input: C[C@H](NC(=O)c1c(C(F)F)nn(C)c1Oc1cccc(C(F)(F)F)c1)c1ccc(C(=O)O)cc1 [PALUPIPRANT]
## Result MET

## Task Let us now turn to N#Cc1c(N)nc(SCc2csc(-c3ccc(Cl)cc3)n2)c(C#N)c1-c1ccc(OCCO)cc1 [CAPADENOSON]
## Result NOT MET

## Task How about this compound: Cc1ccc(/C(=C\CN2CCCC2)c2ccccn2)cc1 [TRIPROLIDINE]
## Result MET

## Task Further, for CN(C)c1ccnc2sc3c(=O)n(N4CCCCCC4)cnc3c12 ?
## Result MET

----------
Test system: U2OS
experiment: Multiplex assay against U2OS
Type: toxicity, cell-based
testParameters: human, 12 h, 10 µM, compound concentration 10 uM, replicate 1
measuredEndpoint: Population Apoptotic (%)
Express your answer in %, writing the number without its unit.

[
  {
    "smilesString": "CC[C@H]1OC(=O)[C@H](C)[C@@H](O[C@H]2C[C@@](C)(OC)[C@@H](O)[C@H](C)O2)[C@H](C)[C@@H](O[C@@H]2O[C@H](C)C[C@H](N(C)C)[C@H]2O)[C@@]2(C)CC(C)=C(O2)[C@H](C)[C@@H](O)[C@]1(C)O",
    "resultUnits": "%",
    "Population Apoptotic (%)": 65
  },
  {
    "smilesString": "N[C@@]1(C(=O)O)CO[C@H]2[C@H](C(=O)O)[C@H]21",
    "resultUnits": "%",
    "Population Apoptotic (%)": 63
  }
]

## Task Any idea what Population Apoptotic (%) came out for CCOc1c2c(c(OCC)c3ncccc13)CN(c1ccc(CS(=O)(=O)NC(=O)Cc3ccccc3OC)cc1C)C2=O on U2OS?
## Result 81

----------
Tested on: HEK-293T
experiment: Multiplex assay against HEK293T
Type: toxicity, cell-based
testParameters: human, 12 h, 10 µM, compound concentration 10 uM, replicate 2
Documented Population Tubulin-Different-Phenotype (%) across a set of compounds
Quick note: give the figure in %, leave out the unit.

[
  {
    "compound": "C[C@H](NC(=O)c1c(C(F)F)nn(C)c1Oc1cccc(C(F)(F)F)c1)c1ccc(C(=O)O)cc1 [PALUPIPRANT]",
    "recordedNumber": 27
  },
  {
    "compound": "Cc1ccc(/C(=C\\CN2CCCC2)c2ccccn2)cc1 [TRIPROLIDINE]",
    "recordedNumber": 45
  },
  {
    "compound": "Cc1nc2ccc(Oc3ccc(F)cc3)cc2c(=O)n1C[C@H]1CCCN(C(C)C)C1.Cl",
    "recordedNumber": 73
  },
  {
    "compound": "CSCC[C@H](NC=O)C(=O)N[C@@H](CC(C)C)C(=O)N[C@@H](Cc1ccccc1)C(=O)O",
    "recordedNumber": 31
  },
  {
    "compound": "COc1cc(NC(=O)CCN2CCC(OC(=O)Nc3ccccc3-c3ccccc3)CC2)c(Cl)cc1CNC[C@H](O)c1ccc(O)c2[nH]c(=O)ccc12 [BATEFENTEROL]",
    "recordedNumber": 67
  }
]

## Task What does the record list as Population Tubulin-Different-Phenotype (%) for O=C(O)c1cc2ccccc2c(Cc2c(O)c(C(=O)O)cc3ccccc23)c1O [PAMOIC ACID] ?
## Result 26

## Task Moving on to the next compound: CNC[C@H](O)c1ccc(O)c(O)c1 [EPINEPHRINE]
## Result 25

## Task Repeat with N[C@@]1(C(=O)O)CO[C@H]2[C@H](C(=O)O)[C@H]21 [LY-379268]
## Result 18

## Task How about this compound: Cc1ccc(C(C)(O)c2nc3ccccc3s2)c(C)c1 (stereo not given)
## Result 25

## Task Another compound: CN1CCN2c3ncccc3Cc3ccccc3C2C1 (stereo not given) [MIRTAZAPINE]
## Result 36

## Task Could you do the same for Cc1ccccc1C(=O)Nc1ccc(C(=O)N2CCCC(N(C)C)c3ccccc32)cc1.Cl (stereo not given) , please?
## Result 61

## Task Then this compound: CC(=O)NCCc1c(Cc2ccccc2)[nH]c2ccccc12 [LUZINDOLE]
## Result 35

## Task Check O=S(=O)(c1ccccc1)c1cnc2c(N3CCNCC3)cccc2c1 [INTEPIRDINE] too.
## Result 50

## Task // same read-out, input: COc1c(C)cc(NC(=O)c2nn(Cc3ccc(F)cc3)c3c2CN(C(=O)c2ccc[nH]2)C[C@]3(C)C(N)=O)cc1C
## Result 63
